Parameter IC50: see the listing below.
# tgt: MCH receptor (Homo sapiens)
# assay-name: High throughput functional screening FLIPR/FDSS6000: inhibition of MCH-evoked intracellular Ca2+ changes
# Assay type: cell-based
# experimental-conditions: class by percent of control at 10^-7 M or by IC50; read-out: class

Known results for compounds:
| compound | IC50 |
| --- | --- |
| COc1ccc(-c2ccccc2)cc1NC(=S)N[C@H]1CC[C@@H](Nc2nc(N(C)C)c3ccccc3n2)CC1 [compound 179] | 50 to 200 nM |
| Cc1ccc(C)c(NC(=O)N[C@H]2CC[C@@H](Nc3nc(N(C)C)c4ccccc4n3)CC2)c1 [compound 82] | > 200 nM |
| CCOC(=O)c1c(NC(=S)NC[C@H]2CC[C@@H](Nc3nc(N(C)C)c4ccccc4n3)CC2)sc2c1CCCC2 [compound 801] | > 200 nM |

// next item, IC50 requested
Value of measured IC50 for the entry COc1cc([N+](=O)[O-])ccc1NC(=O)N[C@H]1CC[C@@H](Nc2nc(N(C)C)c3ccccc3n2)CC1 [compound 104] : 50 to 200 nM

----------
# tgt: MCH receptor (Homo sapiens, UniProt Q99705)
# assay-name: High throughput functional screening FLIPR/FDSS6000: inhibition of MCH-evoked intracellular Ca2+ changes
# Assay type: cell-based
# experimental-conditions: class by percent of control at 10^−7 M or by IC50; read-out: class
Parameter IC50: see the listing below.

| molecule | IC50 |
| --- | --- |
| CN(C)c1nc(N[C@H]2CC[C@@H](NCc3ccc(F)c(F)c3)C2)nc2ccccc12 | > 200 nM |
| CN(C)c1nc(N[C@H]2CC[C@@H](C(=O)Nc3ccc(Cl)nc3)CC2)nc2ccccc12 | < 50 nM |
| COc1ccc(CN[C@@H]2CC[C@H](Nc3nc(N(C)C)c4ccccc4n3)C2)c(OC)c1 | > 200 nM |
| COc1cc(Cl)ccc1Oc1ccc(C(=O)N[C@H]2CC[C@@H](Nc3nc(N(C)C)c4ccccc4n3)CC2)cn1 | 50 to 200 nM |
| CN(C)c1nc(N[C@H]2CC[C@@H](CNC(=O)C(O)c3ccc(F)c(F)c3)CC2)nc2ccccc12 (relative stereo) | > 200 nM |

Value of measured IC50 for the entry `CN(C)c1nc(N[C@H]2CC[C@@H](C(=O)NCc3ccccc3F)CC2)nc2ccccc12` : < 50 nM

Value of measured IC50 for the entry `CN(C)c1nc(N[C@H]2CC[C@@H](C(=O)NCc3cccc(OC(F)F)c3)CC2)nc2ccccc12` : < 50 nM

Value of measured IC50 for the entry `Cc1cccc(NCC(=O)N[C@H]2CC[C@@H](Nc3nc(N(C)C)c4ccccc4n3)CC2)c1` : < 50 nM

Value of measured IC50 for the entry `CN(C)c1nc(N[C@H]2CC[C@@H](NC(=O)c3cccnc3Oc3ccccc3OC(F)(F)F)CC2)nc2ccccc12` : < 50 nM

Value of measured IC50 for the entry `CN(C)c1nc(N[C@H]2CC[C@@H](NC(=O)c3ccc(Oc4ccc(F)c(F)c4)nc3)CC2)nc2ccccc12` : < 50 nM

Value of measured IC50 for the entry `CN(C)c1nc(N[C@H]2CC[C@@H](NC(=O)c3ccc(Oc4cccc(F)c4F)nc3)CC2)nc2ccccc12` : < 50 nM

Value of measured IC50 for the entry `CN(C)c1nc(N[C@H]2CC[C@@H](C(=O)NCc3cc(F)c(F)cc3F)CC2)nc2ccccc12` : < 50 nM

Value of measured IC50 for the entry `CN(C)c1nc(N[C@H]2CC[C@@H](C(=O)NCc3cc(C(F)(F)F)cc(C(F)(F)F)c3)CC2)nc2cc(F)c(F)cc12` : > 200 nM

Value of measured IC50 for the entry `COc1cccc(C(=O)N[C@H]2CC[C@@H](Nc3nc(N(C)C)c4cc(F)c(F)cc4n3)CC2)c1` : < 50 nM

Value of measured IC50 for the entry `CN(C)c1nc(N[C@H]2CC[C@@H](NC(=O)c3cccnc3Oc3ccccc3F)CC2)nc2ccccc12` : < 50 nM

----------
# tgt: MCH receptor (Homo sapiens, UniProt Q99705)
# assay-name: High throughput functional screening FLIPR/FDSS6000: inhibition of MCH-evoked intracellular Ca2+ changes
# Format: cell-based
# experimental-conditions: class by percent of control at 10^-7 M or by IC50; read-out: class
measured-attribute: IC50

| compound | IC50 |
| --- | --- |
| Cc1cc(C)c(NC(=O)N[C@H]2CC[C@@H](Nc3nc(N(C)C)c4ccccc4n3)CC2)c(C)c1 [compound 58] | < 50 nM |
| CN(C)c1nc(N[C@H]2CC[C@@H](NC(=O)Nc3ccccc3C(C)(C)C)CC2)nc2ccccc12 [compound 117] | < 50 nM |
| COc1ccccc1OC(=O)N[C@H]1CC[C@@H](Nc2nc(N(C)C)c3ccccc3n2)CC1 [compound 851] | > 200 nM |

Value of measured IC50 for the entry CN(C)c1nc(N[C@H]2CC[C@@H](NC(=S)Nc3cc(C(F)(F)F)cc(C(F)(F)F)c3)CC2)nc2ccccc12 [compound 155] : > 200 nM

Value of measured IC50 for the entry CN(C)c1nc(N[C@H]2CC[C@@H](NC(=O)Nc3cccc4ccccc34)CC2)nc2ccccc12 [compound 50] : < 50 nM

Value of measured IC50 for the entry COC(=O)c1ccc(NC(=O)N[C@H]2CC[C@@H](Nc3nc(N(C)C)c4ccccc4n3)CC2)cc1 [compound 845] : > 200 nM

Value of measured IC50 for the entry COC(=O)[C@H](Cc1ccccc1)NC(=O)N[C@H]1CC[C@@H](Nc2nc(N(C)C)c3ccccc3n2)CC1 (relative stereo) [compound 62] : < 50 nM

----------
# tgt: MCH receptor (Homo sapiens)
# assay-name: High throughput functional screening FLIPR/FDSS6000: inhibition of MCH-evoked intracellular Ca2+ changes
# Format: cell-based
# experimental-conditions: class by percent of control at 10^-7 M or by IC50; read-out: class
measured-attribute: IC50

| given-smiles | IC50 |
| --- | --- |
| CCCCCCCOc1ccc(NC(=O)N[C@H]2CC[C@@H](Nc3nc(N(C)C)c4ccccc4n3)CC2)cc1 | > 200 nM |

Short answer on MCH receptor (Homo sapiens) for `CN(C)c1nc(N[C@H]2CC[C@@H](NC(=O)Nc3ccccc3Cl)CC2)nc2ccccc12` , IC50: < 50 nM

----------
# tgt: MCH receptor (Homo sapiens, UniProt Q99705)
# assay-name: High throughput functional screening FLIPR/FDSS6000: inhibition of MCH-evoked intracellular Ca2+ changes
# Type: cell-based
# experimental-conditions: class by percent of control at 10^-7 M or by IC50; read-out: class
pIC50: −log10 of the molar value.
measured-attribute: pIC50

Known results for compounds:
| compound | pIC50 |
| --- | --- |
| CC(C)[C@@H]1CC[C@@H](C)C[C@H]1OC(=O)N[C@H]1CC[C@@H](Nc2nc(N(C)C)c3ccccc3n2)CC1 [compound 860] | < 6.70 |
| COc1ccc([N+](=O)[O-])cc1NC(=O)N[C@H]1CC[C@@H](Nc2nc(N(C)C)c3ccccc3n2)CC1 [compound 106] | < 6.70 |
| CC(NC(=O)N[C@H]1CC[C@@H](Nc2nc(N(C)C)c3ccccc3n2)CC1)c1ccccc1 (relative stereo) [compound 65] | > 7.30 |
| CN(C)c1nc(N[C@H]2CC[C@@H](NC(=O)Nc3ccccc3C(F)(F)F)CC2)nc2ccccc12 [compound 55] | > 7.30 |
| CN(C)c1nc(N[C@H]2CC[C@@H](NC(=O)Nc3ccc(Br)cc3Br)CC2)nc2ccccc12 [compound 77] | > 7.30 |

Value of measured pIC50 for the entry CN(C)c1nc(N[C@H]2CC[C@@H](NC(=O)NCCc3ccccc3)CC2)nc2ccccc12 [compound 842] : 6.70 to 7.30

Value of measured pIC50 for the entry C=CCOC(=O)NC[C@H]1CC[C@@H](Nc2nc(N(C)C)c3ccccc3n2)CC1 [compound 877] : < 6.70

----------
# tgt: MCH receptor (Homo sapiens, UniProt Q99705)
# assay-name: High throughput functional screening FLIPR/FDSS6000: inhibition of MCH-evoked intracellular Ca2+ changes
# Assay type: cell-based
# experimental-conditions: class by percent of control at 10^-7 M or by IC50; read-out: class
# Text: Subsequently, a functional based assay was used to confirm the lead hits, referred to as FLIPR™ (the Fluorometric Imaging Plate Reader) and FDSS6000™ (Functional Drug Screening System). […] Fluorometric Imaging Plate Reader system was used to allow for rapid, kinetic measurements of intracellular fluorescence in 96 well microplates (or 384 well microplates). Simultaneous measurements of fluorescence in all wells can be made by FLIPR or FDSS6000™ every second with high sensitivity and precision. […]
pIC50: −log10 of the molar value.
Parameter pIC50: see the listing below.

| compound | tgt | pIC50 |
| --- | --- | --- |
| Cc1noc(C)c1NC(=S)NC[C@H]1CC[C@@H](Nc2nc(N(C)C)c3ccccc3n2)CC1 [compound 817] | MCH receptor (Homo sapiens, UniProt Q99705) | < 6.70 |

Value of measured pIC50 for the entry CN(C)c1nc(N[C@H]2CC[C@@H](NC(=O)Nc3cc([N+](=O)[O-])ccc3Cl)CC2)nc2ccccc12 [compound 88] : 6.70 to 7.30

Value of measured pIC50 for the entry CN(C)c1nc(N[C@H]2CC[C@@H](NC(=O)Nc3c(F)cc(Br)cc3F)CC2)nc2ccccc12 [compound 142] : > 7.30

Value of measured pIC50 for the entry CCc1ccc(NC(=O)N[C@H]2CC[C@@H](Nc3nc(N(C)C)c4ccccc4n3)CC2)cc1 [compound 31] : 6.70 to 7.30

Value of measured pIC50 for the entry CCCCCNC(=O)N[C@H]1CC[C@@H](Nc2nc(N(C)C)c3ccccc3n2)CC1 [compound 54] : > 7.30

Value of measured pIC50 for the entry CCOC(=O)CNC(=O)N[C@H]1CC[C@@H](Nc2nc(N(C)C)c3ccccc3n2)CC1 [compound 28] : < 6.70

Value of measured pIC50 for the entry CN(C)c1nc(N[C@H]2CC[C@@H](CNC(=O)OCC(Cl)(Cl)Cl)CC2)nc2ccccc12 [compound 885] : < 6.70

Value of measured pIC50 for the entry CN(C)c1nc(N[C@H]2CC[C@@H](NC(=O)Nc3cc(Cl)cc(Cl)c3)CC2)nc2ccccc12 [compound 23] : < 6.70

Value of measured pIC50 for the entry CC1CCC(C(C)C)C(OC(=O)NCC2CCC(Nc3nc(N(C)C)c4ccccc4n3)CC2)C1 (stereo not drawn) [compound 880] : < 6.70

Value of measured pIC50 for the entry COc1ccc(NC(=O)N[C@H]2CC[C@@H](Nc3nc(N(C)C)c4ccccc4n3)CC2)c([N+](=O)[O-])c1 [compound 828] : < 6.70

Value of measured pIC50 for the entry Cc1ccc(NC(=O)N[C@H]2CC[C@@H](Nc3nc(N(C)C)c4ccccc4n3)CC2)cc1[N+](=O)[O-] [compound 829] : < 6.70

Value of measured pIC50 for the entry CC(C)CNC(=S)N[C@H]1CC[C@@H](Nc2nc(N(C)C)c3ccccc3n2)CC1 [compound 178] : 6.70 to 7.30

Value of measured pIC50 for the entry CCc1cccc(NC(=O)N[C@H]2CC[C@@H](Nc3nc(N(C)C)c4ccccc4n3)CC2)c1 [compound 132] : 6.70 to 7.30

Value of measured pIC50 for the entry CSc1ccccc1NC(=O)N[C@H]1CC[C@@H](Nc2nc(N(C)C)c3ccccc3n2)CC1 [compound 71] : 6.70 to 7.30

Value of measured pIC50 for the entry CN(C)c1nc(N[C@H]2CC[C@@H](CNC(=S)Nc3ccc(F)c(Cl)c3)CC2)nc2ccccc12 [compound 804] : < 6.70
